System: normal murine embryonic fibroblast cell line (BALB/3T3)
Test: cells
Format: cell-based
Conditions: normal murine fibroblasts BALB/3T3, 72 h, SRB, mean ± SD
pIC50: −log10 of the molar value.

{"columns": ["compound", "pIC50"],
 "data": [
  ["N.N.[Cl][Pt][Cl] [Cisplatin, reference compound]", 5.41]
]}

Ref: paper PMC6262536
